Test: Quantitative High-Throughput drug screen in 47 multiple myeloma cell lines against the NCATS MIPE library collection: KHM11_PLB cell viability assay (AID 1918962); also: nearly all actives have a fitted effect of over 35% in size
Conditions: KHM11 myeloma cell viability, CellTiter-Glo ATP luminescence, 48 h; series mostly up to 45.8 µM
Results filed as inconclusive are left out. Activity calls are given as the source filed them. Calls follow the shape of the dose curve; as a rule, active = well fitted cell-killing curve with a large enough effect; inconclusive = small, poorly fitted or top-dose-only effect, or effect the other way; inactive = no such curve, though single readings can be large or run the other way.
A correct response names exactly one class from active, inactive

Each compound tested received a call. Report the one for CN1CC(=O)N2C(Cc3c([nH]c4ccccc34)[C@H]2c2ccc3c(c2)OCO3)C1=O (some centres undefined) .
inactive

Input O=S(=O)(NCCNCC=Cc1ccc(Br)cc1)c1cccc2cnccc12
active

What about this compound? NC(=O)c1ncn([C@@H]2O[C@H](CO)[C@@H](O)[C@@H]2O)n1
inactive

Another: CO[C@H]1/C=C\O[C@@]2(C)Oc3c(C)c(O)c4c(O)c(c(C=NN5CCN(C6CCCC6)CC5)c(O)c4c3C2=O)NC(=O)C(C)=CC=C[C@H](C)[C@H](O)[C@@H](C)[C@@H](O)[C@@H](C)[C@H](OC(C)=O)[C@H]1C
active

---

Would you kindly list max response for each of these molecules?
Tested on: HEK293
Assay: Cytotoxic Profiling of Annotated Libraries Using Quantitative High-Throughput Screening (AID 1296008); also: % is scaled to controls: 0 for no effect and ±100 for the full control effect; nearly all actives have a fitted effect of over 60% in size
Conditions: Five cell lines viability, CellTiter-Glo ATP luminescence, 48-72 h; stronger effect = lower value
Records with an inconclusive call do not appear.
# unit: % | format: bare number

Given CCCCCOC(=O)Nc1nc(=O)n([C@@H]2O[C@H](C)[C@@H](O)C2O)cc1F (stereo not given in full) , state its recorded max response.
-5.3

Next entry: CN1CC(=O)NC1=NC(=O)Nc1cccc(Cl)c1
-3.54

Same lookup for CCC[C@@H](NC(=O)[C@@H]1[C@H]2CCC[C@@H]2CN1C(=O)[C@@H](NC(=O)[C@@H](NC(=O)c1cnccn1)C1CCCCC1)C(C)(C)C)C(=O)C(=O)NC1CC1 , please.
-0.244

What would you report for CCNC(=O)CCCC=CC[C@@H]1[C@H](C=CC(O)CCc2ccccc2)[C@@H](O)C[C@@H]1O (stereo not given in full) ?
-24.5

What do you get for Cc1ccc(S(=O)(=O)Nc2nc3ccccc3nc2Nc2ccc3nsnc3c2)cc1 ?
4.32

Also need CN1CCN2c3ncccc3Cc3ccccc3C2C1 (stereo not given) , thanks.
-5

Follow-up item: O=C(O)c1ccc(O)c2ncc(N3CCOCC3)cc12
4.93

Try this molecule next: CN1[C@H]2CC[C@H]1CC(OC(=O)c1c[nH]c3ccccc13)C2 (stereo not given in full)
-1.65

Thanks! And O=C(NC[C@H](O)CO)c1ccncc1Nc1ccc(I)cc1F ?
-10.7

Check C[C@H](c1ccc(F)cc1CCCC(=O)O)N(c1cc(F)ccc1F)S(=O)(=O)c1ccc(Cl)cc1 too.
-10.5

What do you get for O=C(O)CCC=CCC[C@@H]1[C@H](N2CCCCC2)[C@@H](O)C[C@@H]1OCc1ccc(-c2ccccc2)cc1 ?
-1.41

Try COc1cc(F)c(C(C)C)cc1-c1ccc(C(F)(F)F)cc1CN1C(=O)O[C@H](c2cc(C(F)(F)F)cc(C(F)(F)F)c2)[C@@H]1C next.
0.948

Here is the next molecule: CC(C)(C)c1nc(-c2cccc(NS(=O)(=O)c3c(F)cccc3F)c2F)c(-c2ccnc(N)n2)s1
-10.3

What do you have for COc1ccc(CCN(C)CCCOc2ccc(S(=O)(=O)c3[nH]c4ccccc4c3C(C)C)cc2)cc1OC ?
-1.95

// next record COc1ccc(CCC(=O)Nc2nc3ccc(Cl)cc3s2)cc1OC
-26

Likewise for CC(NCCc1ccc(O)cc1)C(O)c1ccc(O)cc1 (stereo not given) ?
3.14

Try this molecule next: COc1cc(Cl)cn2c(-c3cccc(NC4CNC4)n3)cnc12
-13.3

Could you do the same for NC[C@H]1O[C@H](O[C@@H]2[C@@H](O)[C@@H](O[C@H]3O[C@H](CO)[C@@H](O)[C@H](N)[C@@H]3O)[C@H](N)C[C@@H]2N)[C@H](O)[C@@H](O)[C@H]1O , please?
-2.16

Now the molecule CC=C(C(=CC)c1ccc(O)cc1)c1ccc(O)cc1
-14

What do you get for FC(F)(F)c1ccc(C=Cc2nc(COc3ccc(CCCCn4ccnn4)cc3)co2)cc1 ?
-116

# repeat for COc1cc2ncnc(Nc3cc(Br)c(O)c(Br)c3)c2cc1OC
0.846

# iterate: O=c1[nH]c(=O)n([C@H]2C[C@@H](O)[C@@H](CO)O2)cc1I
-22.9

And the next one, Cc1cnc(-c2cc(N3CCN(C(=O)CCS(C)(=O)=O)CC3)ncc2Cl)c(C)c1 ?
2.19

And O=C1C(c2c(O)[nH]c3ccccc23)=Nc2ccccc21 ?
-1.42

Moving on to the next molecule: CN1C(=O)C(Cc2c[nH]c3ccccc23)NC1=S (stereo not given)
1.8

OCCn1cc(-c2ccc3c(c2)CCC3=NO)c(-c2ccncc2)n1 ?
2.25

Record: COc1ccc2ccc(=O)oc2c1CC=C(C)C
-5

Also CN(C)CCN(Cc1ccc(Cl)cc1)c1ccccn1 ?
-16.3

One more molecule: N=C1SC(=Cc2ccc(-c3ccc4c(c3)C(=O)NC4=O)o2)C(=O)N1c1ccc(Br)cc1
1.89

Same thing, different molecule: CC1C(=O)OC2C(O)C34C5CC(C(C)(C)C)C36C(OC(=O)C6O)OC4(C(=O)O5)C12O (stereo not given)
-2.56

Same again, this time with Nc1ccn([C@@H]2O[C@H](CO)[C@@H](O)[C@H]2O)c(=O)n1
-76.5

Now consider CC(=O)NCCC(=O)N[C@@H](CCC(N)=O)C(=O)N[C@@H](CO)C(=O)N[C@@H](CCC(N)=O)C(=O)N[C@@H](CCC(N)=O)C(=O)N[C@H](C(=O)N[C@@H](Cc1ccccc1)C(=O)N[C@]1(C)CCCCCCC=CCCC[C@@](C)(C(=O)N[C@@H](CCC(N)=O)C(=O)N[C@@H](CC(N)=O)C(N)=O)NC(=O)[C@H](CC(C)C)NC(=O)[C@H](CC(C)C)NC(=O)[C@@H](CCCNC(=N)N)NC(=O)[C@H](Cc2c[nH]c3ccccc23)NC(=O)[C@H](CC(C)C)NC(=O)[C@H](CC(N)=O)NC1=O)[C@H](C)O and answer again.
-2.69

Another molecule to check: CC(C)=CCCC(C)=CCCC(C)=CCCC(C)=CCCC(C)=CCCC(C)=CCCC(C)=CCCC(C)=CCCC(C)=CCO
-3.76

Another molecule: CC(C)[C@H](O)C(=O)N[C@@H](C)C(=O)N[C@@H]1C(=O)N(C)CCc2ccccc21
-11.6

Record: CC1CCN(c2cc(N3CCN(C)CC3)ccc2NC(=O)c2cc(C#N)c[nH]2)CC1
0.425
